Origin of the recorded values: the supplement of paper PMC11061612

# Tested on: ALL-SIL (T-Lymphoblastic Leukemia)
# protocol: Bliss excess, mean over the matrix (fraction); higher = more synergy;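 note: after 72 h of two-drug dosing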
readout.label: Bliss excess

{"columns": ["compound", "assay.value"],
 "data": [
  ["Cc1c2c(nn1C)CSCc1cc(n(C)n1)CSc1cc(c3ccccc3c1)OCCCc1c(C(=O)O)n(C)c3c-2c(Cl)ccc13 [AZD5991] + CC1(C)CCC(CN2CCN(c3ccc(C(=O)NS(=O)(=O)c4ccc(NCC5CCOCC5)c([N+](=O)[O-])c4)c(Oc4cnc5[nH]ccc5c4)c3)CC2)=C(c2ccc(Cl)cc2)C1 [Venetoclax] (first compound max 1 µM, 7x7, partner max 1 µM)", 0.0333],
  ["CN(C)CCCOc1ccc(-c2ccc3ncc4c(c3c2)n(C2CCOCC2)c(=O)n4C)cn1 [AZD0156] + CCN(CCO)CCCOc1ccc2c(Nc3cc(CC(=O)Nc4cccc(F)c4)[nH]n3)ncnc2c1 [AZD2811] (first compound max 1 µM, 7x7, partner max 1 µM)", -0.0532]
]}

Here is the next item to consider.
[ask] Provide Bliss excess, system ALL-SIL (T-Lymphoblastic Leukemia), entry COc1cccc(OCCCN)c1-c1cc(Nc2cnc(C#N)cn2)n[nH]1 [Prexasertib] + C=CCn1c(=O)c2cnc(Nc3ccc(N4CCN(C)CC4)cc3)nc2n1-c1cccc(C(C)(C)O)n1 [AZD1775] (first compound max 1 µM, partner max 1 µM)
[reply] 0.0648

====

# System: DU-145 (Prostate Carcinoma)
# protocol: Bliss excess, mean over the matrix (fraction); higher = more synergy
readout.label: Bliss excess

{"columns": ["molecule", "Bliss excess"],
 "data": [
  ["CN(C)CCCOc1ccc(-c2ccc3ncc4c(c3c2)n(C2CCOCC2)c(=O)n4C)cn1 [AZD0156] + O=C(c1cc(Cc2n[nH]c(=O)c3ccccc23)ccc1F)N1CCN(C(=O)C2CC2)CC1 [Olaparib] (first compound max 3 µM, partner max 3 µM)", -0.0462]
]}

Here is the next item to consider.
[ask] Give me measured Bliss excess, please, for this molecule: NC1(C(=O)N[C@@H](CCO)c2ccc(Cl)cc2)CCN(c2ncnc3[nH]ccc23)CC1 [Capivasertib] + COc1nnc2ccc(N3CCC(c4ccc(OCCN5CCN(C)C(=O)[C@H]5C)cc4)CC3)nn12 [AZD5153] (first compound max 10 µM, 7x7, partner max 1 µM)
[reply] 0.0276

====

Measured Bliss excess by item
# Test system: Hey (Ovarian Carcinoma)
# protocol: Bliss excess, mean over the matrix (fraction); higher = more synergy
Please state the value as a number alone, without comment.

The cases that follow already have their Bliss excess on record.
{"columns": ["compound", "experimental.system", "Bliss excess"],
 "data": [
  ["Cc1cc2ncnn2cc1Nc1ncc2c(n1)n(C1CCOCC1)c(=O)n2C [AZD7648] + O=C(c1cc(Cc2n[nH]c(=O)c3ccccc23)ccc1F)N1CCN(C(=O)C2CC2)CC1 [Olaparib] (first compound max 10 µM, 7x7, partner max 10 µM)", "Hey (Ovarian Carcinoma)", -0.0088],
  ["CC1(C)CCC(CN2CCN(c3ccc(C(=O)NS(=O)(=O)c4ccc(NCC5CCOCC5)c([N+](=O)[O-])c4)c(Oc4cnc5[nH]ccc5c4)c3)CC2)=C(c2ccc(Cl)cc2)C1 [Venetoclax] + C1CN(CCC1(C(=O)N[C@@H](CCO)C2=CC=C(C=C2)Cl)N)C3=NC=NC4=C3C=CN4 [Capivasertib] (first compound max 1 µM, 7x7, partner max 3 µM)", "Hey (Ovarian Carcinoma)", -0.0504]
]}

Here is the next item to consider.
[ask] Give me measured Bliss excess, please, for this compound: COc1cccc(OCCCN)c1-c1cc(Nc2cnc(C#N)cn2)n[nH]1 [Prexasertib] + C[C@@H]1COCCN1C2=NC(=NC(=C2)C3(CC3)[S@](=N)(=O)C)C4=C5C=CNC5=NC=C4 [AZD6738] (first compound max 1 µM, 7x7, partner max 10 µM)
[reply] 0.007
